Biological target: phosphatase ABI1 via the co-regulator RCAR11/PYR1 (Arabidopsis thaliana, UniProt O49686+P49597)
Sequence (O49686 whole entry): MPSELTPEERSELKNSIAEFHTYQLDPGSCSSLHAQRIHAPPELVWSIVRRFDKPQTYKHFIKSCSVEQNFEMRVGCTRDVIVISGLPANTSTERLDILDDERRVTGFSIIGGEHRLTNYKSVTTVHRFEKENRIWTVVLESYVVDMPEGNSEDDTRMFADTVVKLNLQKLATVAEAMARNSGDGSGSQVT
Sequence (P49597 whole entry): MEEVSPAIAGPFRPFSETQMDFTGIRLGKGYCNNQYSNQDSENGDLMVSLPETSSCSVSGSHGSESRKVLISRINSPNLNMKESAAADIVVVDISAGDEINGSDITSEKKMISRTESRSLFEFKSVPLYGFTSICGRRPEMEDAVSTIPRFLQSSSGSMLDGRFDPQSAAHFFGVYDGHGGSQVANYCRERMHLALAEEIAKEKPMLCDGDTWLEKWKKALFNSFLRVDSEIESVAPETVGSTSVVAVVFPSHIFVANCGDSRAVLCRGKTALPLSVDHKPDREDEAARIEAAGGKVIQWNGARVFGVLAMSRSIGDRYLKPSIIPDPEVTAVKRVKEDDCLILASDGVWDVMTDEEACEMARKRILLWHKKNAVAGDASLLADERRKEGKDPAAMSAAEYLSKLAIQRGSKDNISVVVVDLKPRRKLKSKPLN
Experiment: In vitro assay: inhibition of ABI1 dephosphorylation of 4-methylumbelliferyl phosphate (MUP), fluorescence
Type: biochemical
Conditions: concentration of 5 mM of the substance in DMSO and water, 35° C., 20 minutes
readout type: ABI1 inhibition

INSERT INTO measurements (compound, readout_type, value_measured) VALUES
  ('Cc1ccc(CS(=O)(=O)Nc2ccc3c(c2)CCC(=O)N3C23CC(C2)C3)cc1', 'ABI1 inhibition', '++++ (inhibition ≧90%)'),
  ('O=C1CCc2cc(NS(=O)(=O)Cc3ccc(Cl)cc3)ccc2N1C12CC(C1)C2', 'ABI1 inhibition', '++++ (inhibition ≧90%)'),
  ('CC1CC(N2C(=O)CCc3cc(NS(=O)(=O)Cc4ccc(Cl)cc4)ccc32)C1 (stereo not shown)', 'ABI1 inhibition', '++++ (inhibition ≧90%)');
